- Tested on: UACC-257 melanoma
- assay.protocol: NCI tumour cell line growth inhibition, 48 h
For each entry below, report its GI50 value.

Query: I'd like to know its GI50. The compound in question is O=C1c2ccccc2-c2c1c1c(O)cccc1n2CCCc1ccccc1
Result: 19.7 µM

Query: I'd like to know its GI50. The compound in question is COc1cc(C2CC(=O)c3c(C)nn(-c4nc5ccccc5[nH]4)c3C2)cc(OC)c1OC (stereo not given)
Result: > 100 µM

Query: I'd like to know its GI50. The compound in question is COc1ccc(Oc2nc(Nc3ccc(N4CCOCC4)cc3)ncc2NC(=O)Nc2cc(OC)cc(OC)c2)cc1
Result: 5.47 µM

Query: I'd like to know its GI50. The compound in question is O=C(N/N=C/c1ccncc1)c1ccc(C(F)(F)F)nc1Nc1cccc(C(F)(F)F)c1
Result: 3.78 µM

Query: I'd like to know its GI50. The compound in question is CC(=O)Nc1c(I)c(C(=O)O)c(I)c(N(C)C(C)=O)c1I
Result: > 100 µM

Query: I'd like to know its GI50. The compound in question is COc1ccccc1N(C(C)=O)C1=C(Cl)C(=O)c2ccccc2C1=O
Result: 2.14 µM

Query: I'd like to know its GI50. The compound in question is O=Cc1c[nH]c2ccc(-c3csc4ccccc34)cc12
Result: 13.2 µM

Query: I'd like to know its GI50. The compound in question is [CH3][Sn]([CH3])([CH3])[O]C(=O)C(O)c1ccccc1 (stereo not given)
Result: 4.25 µM

Query: I'd like to know its GI50. The compound in question is Cc1cc(NS(=O)(=O)c2ccc(NC(=O)COc3ccc(-c4cc5ccccc5[nH]4)cc3)cc2)no1
Result: 2.07 µM

Query: I'd like to know its GI50. The compound in question is Nc1ncnc2c1nc(N)n2C1OC(CO)C(O)C1O (stereo not given)
Result: 0.229 µM
